- assay.details: solvent given as SMILES
- assay.setup: in ClC(Cl)Cl
Could you label it yes if measured emission maximum is 600 nm or higher, and no otherwise?

Reference set (3 entries):
# substance.smiles, answer.label
records = [
    ("CCOC(=O)c1ccccc1-c1c2ccc(=[N+](CC)CC)cc-2oc2c1c(=O)oc1cc(N(CC)CC)ccc12", "yes"),
    ("CCCN1c2ccccc2Sc2cc(/C=C\\c3cc(=O)oc4cc(C)ccc34)ccc21", "yes"),
    ("Cc1cccc(Nc2ccccc2C(=O)O)c1C", "no"),
]

Req: Hi, just wondering whether F[B-]1(F)n2c(cc3ccc4ccccc4c32)C(c2ccc(I)cc2)=C2C=C3CCc4ccccc4C3=[N+]21 shows emission maximum of 600 nm or higher.
Resp: yes

###

- assay.details: solvent given as SMILES
- assay.setup: in OCC(F)(F)F
We use 500 nm as the dividing line for emission maximum: on or above the line is Satisfied, below is Not satisfied.

# substance.smiles, answer.label
measured = [
    ("CCC1=C(C)C2=Cc3cc(I)cn3[B-](F)(F)[N+]2=C1C", "Satisfied"),
    ("Cc1cc(=O)oc2c1cc(Br)c1occ(C)c12", "Not satisfied"),
    ("CCC1=C(C)C2=C(C)c3c(C)c(CC)c(C)n3[B-](F)(F)[N+]2=C1C", "Satisfied"),
    ("N#Cc1cc2ccccc2[nH]1", "Not satisfied"),
    ("Oc1ccccc1/C=N/N=C/c1ccccc1O", "Satisfied"),
    ("C=CCOc1nnc(OCCC(F)(F)C(F)(F)C(F)(F)C(F)(F)C(F)(F)C(F)(F)C(F)(F)C(F)(F)F)nn1", "Satisfied"),
]

Pending compound:
Req: Exam item: decide whether the reported emission maximum for Cc1ccc(C2=C3C=C(I)C=[N+]3[B-](F)(F)n3c2cc(I)c3I)cc1 is at least 500 nm.
Resp: Satisfied

###

- assay.details: solvent given as SMILES
- assay.setup: in Cc1ccccc1
parameter: emission maximum
A bare number is not enough; add the unit after it.

# compound, emission maximum
records = [
    ("Cc1ccc(N2C(c3ccccc3N(C)C)=NC(c3ccccc3)C2c2ccccc2)cc1 (configuration not stated)", "422 nm"),
    ("CN(C)c1ccc(/C=C/c2cc(/C=C/c3ccc(N(C)C)cc3)nc(N)n2)cc1", "466 nm"),
    ("CC1(C)c2ccccc2N(c2ccc(-c3nnc(-c4ccc(N5c6ccccc6C(C)(C)c6ccccc65)cc4)o3)cc2)c2ccccc21", "461 nm"),
    ("CC(C)c1cc(C(C)C)c(B2c3cc(N4c5ccccc5C(C)(C)c5ccccc54)ccc3N(c3ccccc3)c3ccc(N4c5ccccc5C(C)(C)c5ccccc54)cc32)c(C(C)C)c1", "469.39 nm"),
    ("CC(C)(C)c1ccc2c(c1)c1cc(C(C)(C)C)ccc1n2-c1ccc(S(=O)(=O)c2ccc(S(=O)(=O)c3ccc(-n4c5ccc(C(C)(C)C)cc5c5cc(C(C)(C)C)ccc54)cc3)cc2)cc1", "446 nm"),
    ("CC1=C(c2cccs2)C(C)=[N+]2C1=C(c1ccccc1)c1c(C)c(-c3cccs3)c(C)n1[B-]2(F)F", "609 nm"),
]

Please find the next compound below.
Req: Report emission maximum for CC(C)(C)c1ccc2c(c1)c1cc(C(C)(C)C)ccc1n2-c1cc[n+]2c(c1)-c1ccccc1O[B-]2(F)F please.
Resp: 473 nm

The measurements presented in this section are drawn from the Deep4Chem optical property database.
